Provenance of the data: patent US10294234B2

- Condition Set: human liver microsomes 0.5 mg/mL, 1 uM compound, NADPH
Experimental Readout: Human Pred Cl. (L/H/kg)
Numbers only; they are read as L/H/kg.

Compound	Unit Tag	Observed Value
COC(=O)N[C@H](C(=O)N[C@@H](Cc1ccc(C#Cc2ccc(N3C[C@H]4C[C@@H]3CN4C3COC3)nc2)cc1)[C@@H](O)CN(Cc1c(F)cc(-c2cc(F)ccn2)cc1F)NC(=O)[C@@H](NC(=O)OC)C(C)(C)C(F)(F)F)C(C)(C)C(F)(F)F [Example 138]	L/H/kg	0.17

If you can, please state the reported Human Pred Cl. value of COC(=O)N[C@H](C(=O)N[C@@H](Cc1ccc(C#Cc2ccc(N3CCN(C4COC4)CC3)nc2)cc1)[C@@H](O)CN(Cc1c(F)cc(-c2ccc(F)cn2)cc1F)NC(=O)[C@@H](NC(=O)OC)C(C)(C)C(F)(F)F)C(C)(C)C(F)(F)F [Example 97] .
0.46

---

- Condition Set: human liver microsomes 0.5 mg/mL, 1 uM compound, NADPH
Experimental Readout: Human Pred Cl.

If you can, please state the reported Human Pred Cl. value of COC(=O)N[C@H](C(=O)N[C@@H](Cc1ccc(C#Cc2ccc(N3C[C@@H]4C[C@H]3CN4C3COC3)nc2)cc1)[C@@H](O)CN(Cc1c(F)cc(-c2ccn(C3CC3)n2)cc1F)NC(=O)[C@@H](NC(=O)OC)C(C)(C)C(F)(F)F)C(C)(C)C(F)(F)F [Example 39] .
0.15 L/H/kg

---

- Condition Set: rat, microsomes
Recorded Rat. Pred. Cl. for the following compounds
Numbers only; they are read as L/H/kg.

Consider the worked cases shown below.
Compound	Unit Tag	Rat. Pred. Cl.
COC(=O)N[C@H](C(=O)N[C@@H](Cc1ccc(C#Cc2ccc(N3CC4CCC(C3)N4C(=O)[C@@H]3CCCO3)nc2)cc1)[C@@H](O)CN(Cc1c(F)cc(-c2cnn(C(F)F)c2)cc1F)NC(=O)[C@@H](NC(=O)OC)C(C)(C)C(F)(F)F)C(C)(C)C(F)(F)F [Example 18]	L/H/kg	1.03
COC(=O)N[C@H](C(=O)NN(Cc1c(F)cc(-c2ccn(C(F)F)n2)cc1F)C[C@H](O)[C@H](Cc1ccc(C#Cc2cnc(N3CC4CCC(C3)N4C3COC3)nc2)cc1)NC(=O)[C@@H](NC(=O)C1CC1)C(C)(C)C(F)(F)F)C(C)(C)C(F)(F)F [Example 221]	L/H/kg	0.28

We now examine a further compound.
If you can, please state the reported Rat. Pred. Cl. value of COC(=O)N[C@H](C(=O)N[C@@H](Cc1ccc(C#Cc2cnc(N3CC4CCC(C3)N4C3COC3)nc2)cc1)[C@@H](O)CN(Cc1c(F)cc(-c2cnc(C)nc2)cc1F)NC(=O)[C@@H](NC(=O)OC)C(C)(C)C(F)(F)F)C(C)(C)C(F)(F)F [Example 119] .
0.27

---

Recorded Human Pred Cl. for the following compounds
- Condition Set: human liver microsomes 0.5 mg/mL, 1 uM compound, NADPH

Smiles String	Experimental Readout	Observed Value
COC(=O)N[C@H](C(=O)N[C@@H](Cc1ccc(C#Cc2cnc(N3C[C@H]4C[C@@H]3CN4C3COC3)nc2)cc1)[C@@H](O)CN(Cc1c(F)cc(-c2ccn(C(F)F)n2)cc1F)NC(=O)[C@@H](NC(=O)OC)C(C)(C)C(F)(F)F)C(C)(C)C(F)(F)F	Human Pred Cl.	<0.11 L/H/kg
COC(=O)N[C@H](C(=O)N[C@@H](Cc1ccc(C#Cc2cnc(N3C[C@H]4C[C@@H]3CN4C3COC3)nc2)cc1)[C@@H](O)CN(Cc1c(F)cc(-c2ccn(CC(F)F)n2)cc1F)NC(=O)[C@@H](NC(=O)OC)C(C)(C)C(F)(F)F)C(C)(C)C(F)(F)F	Human Pred Cl.	0.16 L/H/kg
COC(=O)N[C@H](C(=O)N[C@@H](Cc1ccc(C#Cc2ccc(N3CC4CCC(C3)O4)nc2)cc1)[C@@H](O)CN(Cc1c(F)cc(-c2cnn(C(F)F)c2)cc1F)NC(=O)[C@@H](NC(=O)OC)C(C)(C)C(F)(F)F)C(C)(C)C(F)(F)F	Human Pred Cl.	<0.11 L/H/kg

If you can, please state the reported Human Pred Cl. value of "COC(=O)N[C@H](C(=O)N[C@@H](Cc1ccc(C#Cc2ccc(-c3cn4c(n3)CN(C)C(=O)C4)cc2)cc1)[C@@H](O)CN(Cc1c(F)cc(-c2ccn(C(F)F)n2)cc1F)NC(=O)[C@@H](NC(=O)OC)C(C)(C)C(F)(F)F)C(C)(C)C(F)(F)F" .
<0.11 L/H/kg

---

- Condition Set: rat, microsomes
Experimental Readout: Rat. Pred. Cl. (L/H/kg)
Numbers only; they are read as L/H/kg.

Consider the worked cases shown below.
Compound	Unit Tag	Rat. Pred. Cl.
COC(=O)N[C@H](C(=O)N[C@@H](Cc1ccc(C#Cc2ccc(N3C4CCC3CN(C3COC3)C4)nc2)cc1)[C@@H](O)CN(Cc1c(F)cc(-c2cnn(C(F)F)c2)cc1F)NC(=O)[C@@H](NC(=O)OC)C(C)(C)C(F)(F)F)C(C)(C)C(F)(F)F [Example 19]	L/H/kg	0.29
COC(=O)N[C@H](C(=O)N[C@@H](Cc1ccc(C#Cc2ccc(N3CC4CCC(C3)N4C3COC3)nc2)cc1)[C@@H](O)CN(Cc1c(F)cc(-c2nnc(C3CC3)s2)cc1F)NC(=O)[C@@H](NC(=O)OC)C(C)(C)C(F)(F)F)C(C)(C)C(F)(F)F [Example 75]	L/H/kg	0.21

We now examine a further compound.
If you can, please state the reported Rat. Pred. Cl. value of COC(=O)N[C@H](C(=O)NN(Cc1c(F)cc(-c2ccn(CC(F)F)n2)cc1F)C[C@H](O)[C@H](Cc1ccc(C#Cc2ccc(N3CC4CCC(C3)N4C3COC3)nc2)cc1)NC(=O)[C@@H](NC(=O)OC)C(C)(C)C(F)(F)F)C(C)(C)C [Example 6] .
0.22

---

- Condition Set: human, microsomes
- Procedure: Liver Microsomal Stability Protocol Test compounds and one control compound (verapamil) were tested in 3 different species in duplicate sets. Test compound concentration: 1 uM; Protein concentration: 0.5 mg/mL (for dog, rat, and human liver microsomes); Cofactor: NADPH-Regenerating system (NRS) solution; Time-points: 2, 12, 25, 45, and 65 minutes. […] After plates were vortexed, they were centrifuged for 30 minutes to remove proteins. […] In vitro measured t1/2 was used to calculate Clint values.
Experimental Readout: Human Pred Cl. (L/H/kg)
Numbers only; they are read as L/H/kg.

If you can, please state the reported Human Pred Cl. value of "COC(=O)N[C@H](C(=O)N[C@@H](Cc1ccc(C#Cc2ccc(N3CC4COCC(C3)N4C3COC3)nc2)cc1)[C@@H](O)CN(Cc1c(F)cc(-c2ccccn2)cc1F)NC(=O)[C@@H](NC(=O)OC)C(C)(C)C(F)(F)F)C(C)(C)C(F)(F)F" .
0.33

---

- Condition Set: human, microsomes
Experimental Readout: Human Pred Cl. (L/H/kg)
Numbers only; they are read as L/H/kg.

If you can, please state the reported Human Pred Cl. value of COC(=O)N[C@H](C(=O)N[C@@H](Cc1ccc(C#Cc2ccc(N3CC4CCC(C3)N4C3COC3)nc2)cc1)[C@@H](O)CN(Cc1c(F)cc(-c2cc[nH]n2)cc1F)NC(=O)[C@@H](NC(=O)OC)C(C)(C)C(F)(F)F)C(C)(C)C(F)(F)F [Example 126] .
0.45

Then this compound: COC(=O)N[C@H](C(=O)N[C@@H](Cc1ccc(C#Cc2ccc(N3CC4CCC(C3)N4C3COC3)nc2)cc1)[C@@H](O)CN(Cc1c(F)cc(-c2ccc(F)cn2)cc1F)NC(=O)[C@@H](NC(=O)OC)C(C)(C)C(F)(F)F)C(C)(C)C(F)(F)F [Example 102]
0.18

Then this compound: COC(=O)N[C@H](C(=O)NN(Cc1ccc(-c2ccn(C(F)F)n2)cc1)C[C@H](O)[C@H](Cc1ccc(C#Cc2ccc(N3CC4CCC(C3)N4C3COC3)nc2)cc1)NC(=O)[C@@H](NC(=O)OC)C(C)(C)C(F)(F)F)C(C)(C)C [Example 85]
0.13

Then this compound: CCC(=O)N[C@H](C(=O)NN(Cc1c(F)cc(-c2ccn(C(F)F)n2)cc1F)C[C@H](O)[C@H](Cc1ccc(C#Cc2ccc(N3CC4CCC(C3)N4C3COC3)nc2)cc1)NC(=O)[C@@H](NC(=O)OC)C(C)(C)C(F)(F)F)C(C)(C)C [Example 185]
0.32

Then this compound: COC(=O)N[C@H](C(=O)N[C@@H](Cc1ccc(C#Cc2ccc(N3CC4CCC(C3)N4C(=O)[C@@H]3CCCO3)nc2)cc1)[C@@H](O)CN(Cc1c(F)cc(-c2cnn(C(F)F)c2)cc1F)NC(=O)[C@@H](NC(=O)OC)C(C)(C)C(F)(F)F)C(C)(C)C(F)(F)F [Example 18]
0.13

Then this compound: COC(=O)N[C@H](C(=O)N[C@@H](Cc1ccc(C#Cc2ccc(N3CC4CCC(C3)N4C3COC3)nc2)cc1)[C@@H](O)CN(Cc1c(F)cc(-c2ccccn2)cc1F)NC(=O)[C@@H](NC(=O)OC)C(C)(C)C(F)(F)F)C(C)(C)C(F)(F)F [Example 130]
0.32
